Would you mind telling me the reported pIC50 of each entry?
Test system: human S1P1 receptors (Homo sapiens, UniProt P21453)
Construct: myc (N)
Sequence (P21453 whole entry): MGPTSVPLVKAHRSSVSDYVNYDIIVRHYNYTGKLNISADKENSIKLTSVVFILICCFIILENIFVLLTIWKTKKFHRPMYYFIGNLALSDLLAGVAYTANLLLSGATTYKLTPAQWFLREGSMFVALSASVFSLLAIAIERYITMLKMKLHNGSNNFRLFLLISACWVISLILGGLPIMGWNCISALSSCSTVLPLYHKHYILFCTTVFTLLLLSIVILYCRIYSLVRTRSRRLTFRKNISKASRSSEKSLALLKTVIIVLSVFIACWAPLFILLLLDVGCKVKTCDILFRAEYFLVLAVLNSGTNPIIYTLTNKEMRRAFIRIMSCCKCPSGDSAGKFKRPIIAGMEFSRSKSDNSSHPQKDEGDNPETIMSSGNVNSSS
Experimental protocol: Human S1P1 Receptor Calcium FLIPR Antagonist Assay (HeLa Gα16 S1P1)
Condition summary: relative antagonism of Ca2+ signal evoked by probing agonist GNF-AC-1 at EC80; HeLa-S1P1/Gα16 cells
The value called pIC50 is obtained by taking minus log10 of the concentration in mol/L.

input: Item CCC(Nc1ccc(F)c(-c2ccc(C(=O)N(C)[C@@H](C)C(=O)O)c(Cl)c2)c1)c1ccc(Cl)c(C)c1 (stereo partly shown) [Example 88] has what recorded pIC50?
output: 8.30

input: Give its pIC50 value. Item: CC[C@@H](Nc1cccc(-c2cc(C)c(C(=O)NC3(C(=O)O)CC3)c(C)c2)c1)c1cc(C)c(Cl)c(C)c1 [Example 102]
output: 9.00

input: Recorded pIC50 of CCC(Nc1cccc(-c2ccc(C(=O)N[C@@H](C)C(=O)O)c(Cl)c2)c1)c1ccc(Cl)c(C)c1 (stereo partly shown) [Example 60] , please.
output: 9.00

input: Would you kindly share the measured pIC50 for Cc1cc([C@H](Nc2cccc(-c3cc(C)c(C(=O)N[C@@H](C)C(=O)O)c(C)c3)c2)C(F)(F)F)ccc1Cl [Example 106] ?
output: 8.70

###

Test system: human S1P1 receptors (Homo sapiens)
Construct: myc (N)
Experimental protocol: Human S1P1 Receptor Calcium FLIPR Antagonist Assay (HeLa Gα16 S1P1)
Condition summary: relative antagonism of Ca2+ signal evoked by probing agonist GNF-AC-1 at EC80; HeLa-S1P1/Gα16 cells
Property name: IC50
Form field: result (number plus unit)

input: # input compound: Cc1cc([C@@H](C)Nc2cccc(-c3ccc(C(=O)N[C@@H](C)C(=O)O)c(C)c3)c2)ccc1Cl ; wanted: its IC50
output: 2 nM

input: Could you share which IC50 value was measured for CCc1cc(-c2cccc(NC(C)c3ccc(Cl)c(C)c3)c2)ccc1C(=O)N(C)[C@@H](C)C(=O)O (stereo partly shown) ?
output: 3 nM

input: Record request: IC50 value, item Cc1cc([C@@H](C)Nc2cccc(-c3cc(C)c(C(=O)NC4(C(=O)O)CC4)c(C)c3)c2)cc(C)c1Cl
output: 1 nM

input: Data request, read-out IC50, for CC[C@H](c1ccc(Cl)c(C)c1)N(C)c1cccc(-c2cc(C)c(C(=O)N(C)[C@@H](C)C(=O)O)c(C)c2)c1
output: 10 nM

input: Please give the measured IC50 for this compound: Cc1cc(C(C)Nc2cccc(-c3cc(C)c(C(=O)N[C@@H](CCCCN)C(=O)O)c(C)c3)c2)ccc1Cl (stereo partly shown)
output: 2 nM

input: What value of IC50 has been reported for the following compound? Cc1cc(C(C)Nc2cccc(-c3cc(C)c(C(=O)N[C@@H](C)C(=O)O)c(C)c3)c2)c(F)cc1Cl (stereo partly shown)
output: 2 nM

input: Record request: IC50 value, item Cc1cc([C@H](Nc2cccc(-c3cc(C)c(C(=O)NC4(C(=O)O)CC4)c(C)c3)c2)C(F)(F)F)ccc1Cl
output: 2 nM

###

Test system: human S1P1 receptors (Homo sapiens, UniProt P21453)
Construct: myc (N)
Experimental protocol: Human S1P1 Receptor Calcium FLIPR Antagonist Assay (HeLa Gα16 S1P1)
Condition summary: relative antagonism of Ca2+ signal evoked by probing agonist GNF-AC-1 at EC80; HeLa-S1P1/Gα16 cells
Provide the reported IC50 of each item.
Field: numeric (nM). Do not append units.

input: Any idea what its IC50 is? The compound is Cc1cc([C@@H](C)Nc2cccc(-c3cc(C)c(C(=O)N(C)C4(C(=O)O)CC4)c(C)c3)c2)ccc1Cl
output: 1

input: Using the record for Cc1cc(C(C)Nc2cccc(-c3cc(F)c(C(=O)N[C@@H](C)C(=O)O)c(F)c3)c2)ccc1Cl (stereo partly shown) , report its IC50.
output: 3

input: Look up IC50 for this compound: CC[C@H](c1ccc(Cl)c(C)c1)N(C)c1cccc(-c2cc(C)c(C(=O)N(C)C3(C(=O)O)CC3)c(C)c2)c1
output: 35

input: Query: IC50; subject: Cc1cc(C(C)Nc2cccc(-c3ccc(C(=O)N[C@@H](C)C(=O)O)c(C(F)(F)F)c3)c2)cc(C)c1Cl (stereo partly shown)
output: 1

input: Please report the recorded IC50 for COc1c(F)cc(C(C)Nc2cccc(-c3cc(C)c(C(=O)N[C@@H](C)C(=O)O)c(C)c3)c2)cc1Cl (stereo partly shown) .
output: 2

input: Can you look up the measured IC50 of Cc1cc(C(Nc2cccc(-c3ccc(C(=O)N[C@@H](C)C(=O)O)c(C(F)(F)F)c3)c2)C(F)(F)F)ccc1Cl (stereo partly shown) for me?
output: 4

input: I have this compound here, Cc1cc(C(Nc2cccc(-c3cc(C)c(C(=O)N[C@@H](C)C(=O)O)c(C)c3)c2)C(F)(F)F)ccc1Cl (stereo partly shown) , and I need its recorded IC50.
output: 8

###

Test system: human S1P1 receptors (Homo sapiens)
Construct: myc (N)
Experimental protocol: Human S1P1 Receptor Calcium FLIPR Antagonist Assay (HeLa Gα16 S1P1)
Condition summary: relative antagonism of Ca2+ signal evoked by probing agonist GNF-AC-1 at EC80; HeLa-S1P1/Gα16 cells
Experimental: Human S1P1 Receptor Calcium FLIPR Antagonist Assay The cells are plated in 384 well black plates (10′000 cells per well). […] After washing, the cells are transferred to the FLIPR. The test compounds are added at different concentrations […]) in HBSS in the presence of 0.1% BSA and changes in fluorescence are recorded (indication of agonism). […] This allows the determination of the maximal fluorescence (Fmax). […]
Property name: pIC50
Quick note: pIC50 means taking -log10 of the concentration in moles per liter.

input: Request: pIC50, test system human S1P1 receptors (Homo sapiens), entry Cc1cc(C(C)Nc2ccc(F)c(-c3cc(C)c(C(=O)NC4(C(=O)O)CC4)c(C)c3)c2)ccc1Cl (stereo not shown) [Example 26]
output: 9.00

input: Can you look up pIC50 on human S1P1 receptors (Homo sapiens) for CC[C@@H](Nc1cccc(-c2cc(C)c(C(=O)N[C@@H](C)C(=O)O)c(C)c2)c1)c1ccc(Cl)c(C)c1 [Example 6] ?
output: 8.70

input: Provide value of pIC50 for this record tested with human S1P1 receptors (Homo sapiens): Cc1cc(C(Nc2cccc(-c3ccc(C(=O)NC4(C(=O)O)CC4)c(Cl)c3)c2)C(F)(F)F)ccc1Cl (stereo not shown) [Example 95]
output: 7.85

input: Record Cc1cc(C(Nc2cccc(-c3cc(C)c(C(=O)N[C@@H](C)C(=O)O)c(C)c3)c2)C(F)F)ccc1Cl (stereo partly shown) [Example 75] : what is its pIC50 with human S1P1 receptors (Homo sapiens)?
output: 8.22

input: Item: Cc1cc([C@H](Nc2cccc(-c3ccc(C(=O)N(C)[C@@H](C)C(=O)O)c(Cl)c3)c2)C(F)(F)F)ccc1Cl [Example 96] Test system: human S1P1 receptors (Homo sapiens) Read-out: pIC50 Value: ?
output: 8.70

input: Form: Entry = CCC(Nc1ccc(F)c(-c2cc(C)c(C(=O)N[C@@H](C)C(=O)O)c(C)c2)c1)c1ccc(Cl)c(C)c1 (stereo partly shown) [Example 24] | System = human S1P1 receptors (Homo sapiens) | pIC50 = ____
output: 9.00

input: Report pIC50 for CC[C@H](c1ccc(Cl)c(C)c1)N(C)c1ccc(F)c(-c2cc(C)c(C(=O)N(C)[C@@H](C)C(=O)O)c(C)c2)c1 [Example 118] tested on human S1P1 receptors (Homo sapiens).
output: 8.40

###

Assignment: determine reported IC50 for the given compounds.
Test system: human S1P1 receptors (Homo sapiens, UniProt P21453)
Construct: myc (N)
Experimental protocol: Human S1P1 Receptor Calcium FLIPR Antagonist Assay (HeLa Gα16 S1P1)
Condition summary: relative antagonism of Ca2+ signal evoked by probing agonist GNF-AC-1 at EC80; HeLa-S1P1/Gα16 cells
Give the number; nM is assumed, so skip it.

input: // returns reported IC50 for input CCC(Nc1cccc(-c2ccc(C(=O)N(C)[C@@H](C)C(=O)O)c(Cl)c2)c1)c1ccc(Cl)c(C)c1 (stereo partly shown)
output: 1

input: # input compound: COc1c(C)cc(C(C)Nc2cccc(-c3cc(C)c(C(=O)N[C@@H](C)C(=O)O)c(C)c3)c2)cc1C (stereo partly shown) ; wanted: its IC50
output: 2

input: Please give the measured IC50 for this compound: CC[C@@H](Nc1ccc(F)c(-c2cc(C)c(C(=O)N(C)[C@@H](C)C(=O)O)c(C)c2)c1)c1ccc(Cl)c(C)c1
output: 2

input: // returns reported IC50 for input CCC(Nc1ccc(F)c(-c2ccc(C(=O)N(C)[C@@H](C)C(=O)O)c(C(F)(F)F)c2)c1)c1ccc(Cl)c(C)c1 (stereo partly shown)
output: 13
